Below, each entry is listed with its recorded mRNA levels Apoe.
# System: PU.1 dependent gene expression
# Assay text: RT-qPCR of mRNA levels in BV2 PU.1-Luciferase cells (validation round 3)
# Type: cell-based, mouse
# Protocol conditions: 2-day treatment
Readout kind: mRNA levels Apoe

CCOc1ccc(S(=O)(=O)NCc2ccncc2)cc1C(C)C : 0.390 multiples of 1×
COc1ccc(NS(=O)(=O)c2ccc3c(c2)CCCN3C(=O)C2CCC2)cc1OC : 1.146 multiples of 1×
Cc1ccc(-c2nc3cc(C(C)C)ccc3o2)cc1NC(=O)c1cc([N+](=O)[O-])ccc1N1CCOCC1 : 0.883 multiples of 1×
N#CC(=CNc1ccc2c(c1)OCCO2)c1nc2ccccc2[nH]1 : 0.941 multiples of 1×
CSc1ccc(C=Cc2nc3ccccc3n2S(=O)(=O)c2ccc(F)c(C)c2)cc1 : 0.899 multiples of 1×
Cc1c(Cl)cccc1-n1ncc(C(=O)Nc2ccc3c(c2)OCCO3)c1C1CCN(C(=O)OC(C)(C)C)CC1 : 0.980 multiples of 1×
C[C@]12CCC(=O)C=C1CC[C@H]1[C@@H]3CC[C@](O)(C(=O)CO)[C@@]3(C)C[C@H](O)[C@@]12F [Fludrocortisone, reference compound] : 1.493 multiples of 1×
Cn1nc(CC(=O)Nc2ccc(N3CCN(C(=O)OC(C)(C)C)CC3)cc2)c2ccccc2c1=O : 1.233 multiples of 1×
CCOC(=O)c1ccc(NS(=O)(=O)c2cc(Br)cc3c2N(C(C)=O)C(C)C3)cc1 (stereo not drawn) : 0.928 multiples of 1×
C[C@H]1C[C@H]2[C@@H]3CCC4=CC(=O)C=C[C@]4(C)[C@@]3(F)[C@@H](O)C[C@]2(C)[C@@]1(O)C(=O)CO [Betamethasone, reference compound] : 1.615 multiples of 1×
Cc1c(Cl)ccc2sc(N3CCN(C(=O)CCS(=O)(=O)c4ccc(F)cc4)CC3)nc12 : 0.928 multiples of 1×
CC(C)N=C(N)c1ccc2nc(-c3ccc(OCc4cccc(COc5ccc(-c6nc7ccc(C(N)=NC(C)C)cc7[nH]6)cc5)c4F)cc3)[nH]c2c1 [DB2313, reference compound] : 0.600 multiples of 1×
CC(=NCCCn1ccnc1)c1c(C(F)(F)F)[nH]n(-c2nc3ccccc3s2)c1=O : 0.823 multiples of 1×
CCc1ccc(NC(=O)Cn2c(=O)oc3cc(S(=O)(=O)N4CCCCCC4)ccc32)cc1 : 0.886 multiples of 1×
O=S(=O)(NCc1ccncc1)c1ccc(C2CCCCC2)cc1 : 1.522 multiples of 1×

###

# Tested on: PU.1 dependent gene expression
# Assay text: RT-qPCR of mRNA levels in BV2 PU.1-Luciferase cells (validation round 3)
# Format: cell-based, mouse
# Protocol conditions: 2-day treatment
Readout kind: mRNA levels Spi1

CCc1ccc(CNC(=O)C2CCCN(c3nn4cc(-c5ccc(F)cc5)nc4s3)C2)cc1 (centres unmarked) : 1.034 multiples of 1×
CCOc1ccc(-c2nc(CSCC(=O)NCc3ccc(Cl)cc3)c(C)o2)cc1 : 0.897 multiples of 1×
Cn1nccc1C(=O)NCc1ccc2c(c1)CCN2C(=O)c1ccc(F)cc1 : 0.958 multiples of 1×
CC(=NCCCn1ccnc1)c1c(C(F)(F)F)[nH]n(-c2nc3ccccc3s2)c1=O : 0.912 multiples of 1×
CCCCN(c1ccccc1)c1ncnc2c1cnn2-c1ccc(Cl)cc1 : 1.179 multiples of 1×
CCOC(=O)c1ccc(NS(=O)(=O)c2cc(Br)cc3c2N(C(C)=O)C(C)C3)cc1 (centres unmarked) : 0.965 multiples of 1×
Cc1nc(-c2ccc(S(=O)(=O)Nc3ccc(C)c(N(C)C)c3)cc2)co1 : 0.733 multiples of 1×
Cc1ccc(-c2nc3cc(C(C)C)ccc3o2)cc1NC(=O)c1cc([N+](=O)[O-])ccc1N1CCOCC1 : 1.142 multiples of 1×

###

Below, each entry is listed with its recorded IC50.
# Target: PU.1 (Mus musculus, UniProt P17433)
# Construct: endogenous in cells
# Assay text: Luciferase assay (luminescence) in BV2 PU.1-Luciferase reporter cells
# Protocol conditions: luminescence reduction in BV2 PU.1-Luciferase cells, concentration-response, Hill's equation
Readout kind: IC50 (nM)

CC(C)(C)OC(=O)N1CCC(c2c(C(=O)Nc3ccc4c(c3)OCCO4)cnn2-c2ccccc2)CC1 : 2930
CCc1ccc(NC(=O)Cn2c(=O)oc3cc(S(=O)(=O)N4CCCCCC4)ccc32)cc1 : 3620
CCCCN(C)C(=O)C1CCCN(c2ncnc3onc(C)c23)C1 (stereo not shown) : 2620
CCCC(=O)Nc1nnc(SCc2cc(=O)c3ccc(C)cc3[nH]2)s1 : 1620

###

# Tested on: PU.1 dependent gene expression
# Assay text: RT-qPCR of mRNA levels in BV2 PU.1-Luciferase cells (validation round 3)
# Format: cell-based, mouse
# Protocol conditions: 2-day treatment
Below, each entry is listed with its recorded mRNA levels Apoe.
Readout kind: mRNA levels Apoe

Cn1nccc1C(=O)NCc1ccc2c(c1)CCN2C(=O)c1ccc(F)cc1 [Compound 2G2] : 0.957 multiples of 1×
Cc1ccc(C)c(N2CCN(C(=O)C3CCN(c4nc(-c5ccc(C(C)C)cc5)no4)CC3)CC2)c1 [Compound 2E10] : 1.244 multiples of 1×
Cc1ccc(-c2c(C)n3c4c(=O)n(C)c(=O)n(C)c4nc3n2CCO)cc1 [Compound 2H5] : 1.756 multiples of 1×
CCOc1ccc(-c2nc(CSCC(=O)NCc3ccc(Cl)cc3)c(C)o2)cc1 [Compound 2H3] : 1.111 multiples of 1×
CCOc1ccc(-c2nc(CSCC(=O)NCc3ccc(C)cc3)c(C)o2)cc1 [Compound 2H2] : 1.739 multiples of 1×
C[C@@H]1C[C@H]2[C@@H]3CCC4=CC(=O)C=C[C@]4(C)[C@@]3(F)[C@@H](O)C[C@]2(C)[C@@]1(O)C(=O)CO [Dexamethasone, reference compound] : 1.325 multiples of 1×
CC(C)c1ccc(C2Sc3ccccc3NC3=C2C(=O)c2ccccc23)cc1 (centres unmarked) [Compound 1B5] : 0.797 multiples of 1×
CCOC(=O)c1oc2ccc(S(=O)(=O)n3nc(-c4ccccc4OC)cc3N)cc2c1C [Compound 1H7] : 0.908 multiples of 1×

###

Below, each entry is listed with its recorded mRNA levels Spi1.
# Test system: PU.1 dependent gene expression
# Assay text: RT-qPCR of mRNA levels in BV2 PU.1-Luciferase cells (validation round 3)
# Assay type: cell-based, mouse
# Protocol conditions: 2-day treatment
Readout kind: mRNA levels Spi1

CCOC(=O)O[C@]1(C(=O)OCCl)CC[C@H]2[C@@H]3CCC4=CC(=O)C=C[C@]4(C)[C@H]3[C@@H](O)C[C@@]21C [Loteprednol, reference compound] : 1.167 multiples of 1×
CCc1ccc(NC(=O)Cn2c(=O)oc3cc(S(=O)(=O)N4CCCCCC4)ccc32)cc1 [Compound 2A7] : 0.739 multiples of 1×
COc1cc(NS(=O)(=O)c2ccc3c(c2)CC(C)N3C(=O)C2CCC2)cc(OC)c1OC (centres unmarked) [Compound 2C3] : 0.946 multiples of 1×
CCOC(=O)c1oc2ccc(S(=O)(=O)n3nc(-c4ccccc4OC)cc3N)cc2c1C [Compound 1H7] : 1.022 multiples of 1×
CCn1c(=O)c2cc(C(=O)Nc3cc(OC)c(OC)c(OC)c3)sc2c2ccccc21 [Compound 1G9] : 0.989 multiples of 1×
Cc1ccc(-c2c(C)n3c4c(=O)n(C)c(=O)n(C)c4nc3n2CCO)cc1 [Compound 2H5] : 1.316 multiples of 1×
CCCCN(C)C(=O)C1CCCN(c2ncnc3onc(C)c23)C1 (centres unmarked) [Compound 2D5] : 1.015 multiples of 1×
C[C@@H]1C[C@H]2[C@@H]3CCC4=CC(=O)C=C[C@]4(C)[C@@]3(Cl)[C@@H](O)C[C@]2(C)[C@@]1(O)C(=O)CCl [Mometasone, reference compound] : 1.016 multiples of 1×

###

# Tested on: PU.1 dependent gene expression
# Assay text: RT-qPCR of mRNA levels in BV2 PU.1-Luciferase cells (validation round 3)
# Assay type: cell-based, mouse
# Protocol conditions: 2-day treatment
Readout kind: mRNA levels Apoe

CC(=O)c1c(C)oc2ccc(N(C(=O)Oc3ccccc3)S(=O)(=O)c3ccc(C(C)(C)C)cc3)cc12 : 0.858 multiples of 1×
Cc1cccc(Cn2cccc(C(=O)Nc3nc4ccccc4s3)c2=O)c1 : 1.005 multiples of 1×
C[C@@H]1C[C@H]2[C@@H]3CCC4=CC(=O)C=C[C@]4(C)[C@@]3(Cl)[C@@H](O)C[C@]2(C)[C@@]1(O)C(=O)CCl [Mometasone, reference compound] : 1.444 multiples of 1×
CCc1ccc(CNC(=O)C2CCCN(c3nn4cc(-c5ccc(F)cc5)nc4s3)C2)cc1 (stereo not shown) : 1.035 multiples of 1×
